B1: library; a variant is named by its letters at N, in order (parent)
chain: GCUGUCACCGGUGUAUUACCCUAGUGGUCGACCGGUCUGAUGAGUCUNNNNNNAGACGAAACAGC

Variants of: B1
method.summary: FACS-Seq fitted mean relative fluorescence mCherry/BFP with ligand (log10 relative fluorescence); ligand: hypoxanthine (xanthine aptamer); ligand concentration (+) FACS-Seq: 5 mM; higher = higher reporter protein expression
study.conditions: HEK293T, ligand present: yes
Classes based on FACS-Seq fitted mean (log10): low bin (below 0.5), mid bin (0.5 to below 0.6), high bin (0.6 or more)

{"columns": ["mutant", "label.class"],
 "data": [
  ["CUUUCA", "mid bin"],
  ["UCCCAC", "low bin"],
  ["UCUCAG", "low bin"],
  ["AGAAGG", "low bin"],
  ["AGACAU", "mid bin"],
  ["CGGUAA", "mid bin"],
  ["GUAGUA", "high bin"],
  ["GGCAGU", "low bin"],
  ["AAAACA", "high bin"],
  ["CAUAGA", "high bin"],
  ["AAGUGG", "high bin"]
]}
